meta.source: paper PMC12040169

# protocol notes: in vitro
# recorded conditions: human, hela cells, % viability
List of viability at 28.5 h, 10 µM values.
Write the answer as a number in %, unit excluded.

c1cc2[nH]ccc2c(N2CCNCC2)n1 [CBK051673C] :: 90.7
C=CCOc1ccc2ccccc2c1CNc1nc[nH]n1 [CBK267296] :: 87.9
NC(=O)NC(CC(=O)N1CCCC1c1ccncc1)c1cccc(Br)c1 (centres unmarked) [CBK306345] :: 92.7

## Input What value of viability at 28.5 h, 10 µM has been reported for the following compound? CCNC(=O)Nc1ncc(-c2ccc(Oc3ccccc3)cc2)c2cccnc12 [CBK070636]
## Output 104

## Input What value of viability at 28.5 h, 10 µM has been reported for the following compound? O=C(c1n[nH]c2c1CCCC2)N1CCc2ncc(Cl)cc2C1 [CBK284975]
## Output 93.4

* * *

# protocol notes: in vitro
# recorded conditions: human, hela cells, % viability
endpoint label: viability at 28.5 h, 10 µM (%)
Write the answer as a number in %, unit excluded.

COc1c2c(nc3ccccc13)OC(C(C)(O)CO)C2 (centres unmarked) [CBK261506] :: 87.6

## Input What value of viability at 28.5 h, 10 µM has been reported for the following molecule? COc1ccc(C(=O)N2CCC3(CCCN(C(=O)Cc4ccc(Cl)c(Cl)c4)C3)C2)cc1OC (centres unmarked) [CBK131654]
## Output 98.1

## Input What value of viability at 28.5 h, 10 µM has been reported for the following molecule? O=C(O)c1cccc(-n2c(S)nnc2-c2cnccn2)c1 [CBK269252]
## Output 104

## Input What value of viability at 28.5 h, 10 µM has been reported for the following molecule? Cc1nc(C)n(CC2CCCCN2Cc2cn3ccccc3c2C#N)n1 (centres unmarked) [CBK306102]
## Output 85.1

## Input What value of viability at 28.5 h, 10 µM has been reported for the following molecule? Cn1cc(CNCc2ccc(N3CCCC3)nc2)c(-c2cccnc2)n1 [CBK306312]
## Output 105

* * *

# protocol notes: in vitro
# recorded conditions: human, hela cells, % viability
List of viability at 28.5 h, 10 µM values.
Write the answer as a number in %, unit excluded.

CC(C)NC(=O)c1cc(C2CCN(C(=O)CCCc3ccc(F)cc3)C2)nc2ccccc12 (centres unmarked) :: 95.2
CCCn1nc(C)c(-c2cncn2CCc2c(C)nn(C)c2C)c1C :: 91.5
COc1cccc(C(=O)N2CCN(C(=O)Nc3ccccc3Br)CC2)c1 :: 94.4

## Input What value of viability at 28.5 h, 10 µM has been reported for the following molecule? CCCNC(=O)CN(C)CC(=O)Nc1sc2c(c1C#N)CCC(C)C2 (centres unmarked)
## Output 82.5

## Input What value of viability at 28.5 h, 10 µM has been reported for the following molecule? O=C(CC1C(=O)NCCN1C(=S)Nc1ccccc1)Nc1ccc2c(c1)OCCO2 (centres unmarked)
## Output 95.9

* * *

# protocol notes: in vitro
# recorded conditions: human, hela cells, % viability
viability at 28.5 h, 10 µM under 90% gets 1, anything at or over 90% gets -1.

Previously resolved entries follow.
Cn1c(=O)n(C)c2cc(NC(=O)CN(c3ccccc3)S(C)(=O)=O)ccc21 :: -1
Cc1nc(-c2ccccc2)sc1C(=O)C1=C(O)C(=O)N(CCN(C)C)C1c1ccccc1 (centres unmarked) :: -1
CCc1nc2ccc(C(=O)N(C)CCN(C)C)cn2c1N(CC)Cc1cccc(Br)c1 :: -1

## Input Does this compound meet the criterion viability at 28.5 h, 10 µM < 90%? COc1ccc(CC(=O)N2CCC(c3cc4ncccc4[nH]3)CC2)cc1
## Output 1

* * *

# protocol notes: in vitro
# Parameters: Viability of infected HeLa host cells, resazurin conversion, bulk resorufin fluorescence relative to DMSO
# recorded conditions: human, hela cells; bulk resorufin, mean of 2
List of viability at 28.5 h, 10 µM values.
Write the answer as a number in %, unit excluded.

N#CCCCN1CCC(Oc2cncc(OCc3ccc(Cl)c(Cl)c3)n2)C1 (stereo not drawn) :: 99.4

Read the next record carefully.
## Input What value of viability at 28.5 h, 10 µM has been reported for the following compound? Cc1cc(NS(=O)(=O)c2ccc(NC(=O)CCCOc3ccc(Cl)cc3Cl)cc2)no1
## Output 89.4

* * *

# protocol notes: in vitro
# recorded conditions: human, hela cells, % viability
endpoint label: viability at 28.5 h, 10 µM
Give your result as the value with the unit written after it.

Please review the following examples before continuing.
O=C1N/C(=N/c2ccccc2Cl)S/C1=C/c1ccc(-c2ccccc2Cl)o1 :: 89.3%
CN1C(=O)COc2ccccc2CCCC[C@@H]2[C@H]1CCCN2C(=O)c1cc(=O)[nH]c(=O)[nH]1 :: 83.3%
CC1=CC2=NC3(CCC3)[C@@H]3C[C@@H](O)[C@@H](O)[C@@H]3N2O1 :: 92%
CCC1CCC2(CC1)NC(=O)N(Cc1cc(-c3ccccc3)on1)C2=O (centres unmarked) :: 90.1%
Cn1c(=O)c2c(nc(CN3CCCCC3)n2CCCO)n(C)c1=O :: 106%

## Input What value of viability at 28.5 h, 10 µM has been reported for the following compound? CCn1c(=O)n(CC(=O)N2CCCC2)c2cccnc21
## Output 107%

## Input What value of viability at 28.5 h, 10 µM has been reported for the following compound? O=C(CSc1nnnn1-c1ccc(O)cc1)NC1CCCC1
## Output 90.6%

## Input What value of viability at 28.5 h, 10 µM has been reported for the following compound? O=C(CSc1nc(Nc2ccccc2)nc(N2CCOCC2)n1)N1CCN(c2ccccc2)CC1
## Output 98.5%

## Input What value of viability at 28.5 h, 10 µM has been reported for the following compound? Cc1cc(C)n(CC(C)CNC(=O)Cc2csc(N3CCCC3=O)n2)n1 (centres unmarked)
## Output 91.2%

## Input What value of viability at 28.5 h, 10 µM has been reported for the following compound? CC1(C)Cc2nc(-c3ccccc3)nc(SCC(=O)NCCc3ccccc3)c2CO1
## Output 86.7%

## Input What value of viability at 28.5 h, 10 µM has been reported for the following compound? O=C(O)C/N=C1/CCCc2ccccc2N1
## Output 90.7%

## Input What value of viability at 28.5 h, 10 µM has been reported for the following compound? CCNC(=O)N1CCCC(Cc2ccc(F)cc2F)(C(=O)OCC)C1 (centres unmarked)
## Output 81.9%

## Input What value of viability at 28.5 h, 10 µM has been reported for the following compound? CCS(=O)(=O)c1ccc2cc(C(=O)O)[nH]c2c1
## Output 101%

* * *

List of viability at 28.5 h, 10 µM values.
# protocol notes: in vitro
# recorded conditions: human, hela cells, % viability
Write the answer as a number in %, unit excluded.

Cc1cc(=O)oc2cc(OCc3ccc(S(=O)(=O)N4CCOCC4)cc3)ccc12 :: 91.3
O=C(CSc1ccc2nnc(-c3ccc(F)cc3)n2n1)N1CCCCC1 :: 98.4

## Input What value of viability at 28.5 h, 10 µM has been reported for the following compound? O=C1CC(SCc2nc3ccccc3[nH]2)C(=O)N1c1ccccc1Cl (stereo not shown)
## Output 94.7

## Input What value of viability at 28.5 h, 10 µM has been reported for the following compound? CCN(CC)C(=O)c1ccc(NS(=O)(=O)c2cc(F)c(Br)cc2F)cc1
## Output 90.1

## Input What value of viability at 28.5 h, 10 µM has been reported for the following compound? Cn1nc([N+](=O)[O-])nc1Sc1nnnn1-c1ccc(C(=O)O)cc1
## Output 109

## Input What value of viability at 28.5 h, 10 µM has been reported for the following compound? Nc1ncnc2c1nc1n2[C@@H]2O[C@@H]([C@H](O)C2O)[C@H]1O (stereo partly shown)
## Output 98.1

## Input What value of viability at 28.5 h, 10 µM has been reported for the following compound? COc1ccc(NC(=O)c2ccc3ncsc3c2)cc1
## Output 107

## Input What value of viability at 28.5 h, 10 µM has been reported for the following compound? CCCC/C=C/c1cncc(NCc2cccc(Cl)c2)n1
## Output 97.3

## Input What value of viability at 28.5 h, 10 µM has been reported for the following compound? Cc1ccc(-c2nnc(CN3C(=O)C4(CC(=O)N(C)C4=O)c4cc(F)ccc43)o2)cc1 (stereo not shown)
## Output 110

* * *

List of viability at 28.5 h, 10 µM values.
# protocol notes: in vitro
# recorded conditions: human, hela cells, % viability
Write the answer as a number in %, unit excluded.

Please review the following examples before continuing.
CCOC(=O)NC(Nc1nc2ccccc2s1)(C(F)(F)F)C(F)(F)F :: 93.6
Cc1ccc(C)c(NC(=O)CCNC(=O)c2cnn3cc(C)cnc23)c1 :: 87.5
Cc1cc(C(=O)COc2cccc(-n3cnnn3)c2)c(C)n1C(C)c1ccccc1 (stereo not shown) :: 70.2
COc1cccc(C(=O)N2CCN(C(=O)Nc3ccc(C(F)(F)F)cc3)CC2)c1 :: 96.4
CCn1c(=O)n(CC(=O)N2C(C)CCCC2C)c2cccnc21 (stereo not shown) :: 102

## Input What value of viability at 28.5 h, 10 µM has been reported for the following molecule? CCn1cnc2c1CCC(CN/C(=N/C(=O)c1ccccc1)NC)C2 (stereo not shown)
## Output 103

## Input What value of viability at 28.5 h, 10 µM has been reported for the following molecule? O=C(NC1CCCCC1)c1ccc(-n2ccnc2)c(-n2cccc2)c1
## Output 107

## Input What value of viability at 28.5 h, 10 µM has been reported for the following molecule? c1cnc(-c2ccoc2)c(NCCCN2CCOCC2)n1
## Output 95.3

## Input What value of viability at 28.5 h, 10 µM has been reported for the following molecule? COC[C@@H]1CCCN1S(=O)(=O)c1ccc(C(C)C)cc1
## Output 110

## Input What value of viability at 28.5 h, 10 µM has been reported for the following molecule? CCCOc1ccc(Cc2nnn[nH]2)cc1
## Output 83.9
